tested on: NKCC1; experiment: Cellular inhibition of NKCC1 phosphorylation (pThr203); type: cell-based; settings: Hypotonic conditions; n = 3; — = no inhibition; read-out: NKCC1 pThr203 (μM) hypo
Value Type: IC50 (µM)

Cc1cc(C(C#N)c2ccc(Cl)cc2)c(Cl)cc1NC(=O)c1ccccc1S (stereo not drawn) [1c (ZT-05-037-01)] : 3
Cc1cc(C(C#N)c2ccc(Cl)cc2)c(Cl)cc1NC(=O)c1cc(Cl)cc(Cl)c1O (stereo not drawn) : 3
Cc1cc(C(C#N)c2ccc(Cl)cc2)c(Cl)cc1NC(=O)c1cccc(F)c1O (stereo not drawn) [1h(ZT-06-039-01)] : 3
Cc1cc(C(C#N)c2ccc(Cl)cc2)c(Cl)cc1NC(=O)c1cc(F)ccc1O (stereo not drawn) [1g(ZT-06-055-01)] : 3

a. Cc1cc(C(C#N)c2ccc(Cl)cc2)c(Cl)cc1NC(=O)c1ccccc1N (stereo not drawn) [1d(ZT-06-022-01)]
b. Cc1cc(C(C#N)c2ccc(Cl)cc2)c(Cl)cc1NC(=O)c1ccccc1O (stereo not drawn)
Kindly identify the item with the lower IC50 figure among these two: a and b Give the chosen item's label as your response.
b

----------
molecular target: SPAK (Homo sapiens); assay: Cellular inhibition of SPAK phosphorylation (pSer373); assay type: cell-based; settings: Isotonic conditions; 50% inhibition of phosphorylation; n = 3; — = no inhibition; read-out: SPAK pSer373 (μM) Iso
Value Type: IC50 (µM)

Consider the reported IC50 for these compounds:
Cc1cc(C(C#N)c2ccc(Cl)cc2)c(Cl)cc1NC(=O)c1ccccc1O (stereo not shown) : 3
Cc1cc(C(C#N)c2ccc(Cl)cc2)c(Cl)cc1NC(=O)c1cccc(F)c1O (stereo not shown) [1h(ZT-06-039-01)] : 3

I. Cc1cc(C(C#N)c2ccc(Cl)cc2)c(Cl)cc1NC(=O)c1ccccc1S (stereo not shown) [1c (ZT-05-037-01)]
II. Cc1cc(C(C#N)c2ccc(Cl)cc2)c(Cl)cc1NC(=O)c1cc(Cl)ccc1O (stereo not shown) [1a (ZT-1a)]
So which one has the bigger IC50 here, I or II ? Give the chosen item's label as your response.
I
(I: 3 µM, II: 1 µM)

----------
tested on: KCC3; test: Cellular inhibition of KCC3 phosphorylation (pThr991, pThr1048); assay type: cell-based; conditions: Isotonic conditions; n = 3; — = no inhibition; read-out: KCC3 pThr991 (μM) Iso
Value Type: IC50 (µM)
Response body: numeric value in µM, unit text excluded.

What value of measured IC50 is listed for Cc1cc(C(C#N)c2ccc(Cl)cc2)c(Cl)cc1NC(=O)c1cc(Cl)ccc1O (stereo not shown) [1a (ZT-1a)] ?
3
